The values you see were collected from paper doi:10.1101/2020.03.02.973636v3.

- target.of.assay: HDAC1 (Homo sapiens)
- Sequence (Q13547 whole entry): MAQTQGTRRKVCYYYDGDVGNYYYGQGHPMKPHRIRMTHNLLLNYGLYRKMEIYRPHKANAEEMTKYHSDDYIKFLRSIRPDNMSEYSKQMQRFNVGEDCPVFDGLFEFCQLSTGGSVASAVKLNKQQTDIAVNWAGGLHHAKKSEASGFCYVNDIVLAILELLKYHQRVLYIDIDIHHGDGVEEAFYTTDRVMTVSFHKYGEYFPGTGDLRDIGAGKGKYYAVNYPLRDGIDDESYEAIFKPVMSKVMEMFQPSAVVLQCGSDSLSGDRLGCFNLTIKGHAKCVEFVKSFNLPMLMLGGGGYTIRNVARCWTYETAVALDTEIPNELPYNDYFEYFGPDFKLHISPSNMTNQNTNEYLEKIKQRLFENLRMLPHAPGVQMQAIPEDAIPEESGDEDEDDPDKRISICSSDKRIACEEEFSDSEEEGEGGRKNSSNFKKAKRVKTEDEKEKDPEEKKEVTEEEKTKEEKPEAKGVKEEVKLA
pKd: −log10 of the molar value.
endpoint: pKd

- O=C(c1cc(O)c(O)c(O)c1)c1ccc(O)c(O)c1O [Exifone, 2,3,3’,4,4’,5’-hexahydroxybenzophenone]: 7.02

----------
- target.of.assay: HDAC1 (Homo sapiens)
- protocol.details: biochemical
endpoint: EC50 (nM)

- O=C(c1cc(O)c(O)c(O)c1)c1ccc(O)c(O)c1O [Exifone, 2,3,3’,4,4’,5’-hexahydroxybenzophenone]: 160

----------
- target.of.assay: HDAC8 (Homo sapiens, UniProt Q9BY41)
- Sequence (Q9BY41 whole entry): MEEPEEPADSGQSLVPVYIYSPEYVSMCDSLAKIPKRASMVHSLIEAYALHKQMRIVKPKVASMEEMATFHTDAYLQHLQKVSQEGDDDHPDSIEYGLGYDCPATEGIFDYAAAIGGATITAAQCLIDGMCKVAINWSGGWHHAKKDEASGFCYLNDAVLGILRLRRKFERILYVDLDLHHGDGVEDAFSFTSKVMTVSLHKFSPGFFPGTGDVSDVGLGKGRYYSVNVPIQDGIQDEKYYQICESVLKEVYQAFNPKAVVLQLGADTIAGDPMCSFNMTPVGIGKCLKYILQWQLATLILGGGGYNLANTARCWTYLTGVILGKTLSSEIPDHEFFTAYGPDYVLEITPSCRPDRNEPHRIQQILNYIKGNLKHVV
- protocol.details: RapidFire mass spectrometry deacetylase assay
endpoint: EC50 (nM)

- O=C(c1cc(O)c(O)c(O)c1)c1ccc(O)c(O)c1O [Exifone, 2,3,3’,4,4’,5’-hexahydroxybenzophenone]: 270

----------
- target.of.assay: HDAC2 (Homo sapiens, UniProt Q92769)
- Sequence (Q92769 whole entry): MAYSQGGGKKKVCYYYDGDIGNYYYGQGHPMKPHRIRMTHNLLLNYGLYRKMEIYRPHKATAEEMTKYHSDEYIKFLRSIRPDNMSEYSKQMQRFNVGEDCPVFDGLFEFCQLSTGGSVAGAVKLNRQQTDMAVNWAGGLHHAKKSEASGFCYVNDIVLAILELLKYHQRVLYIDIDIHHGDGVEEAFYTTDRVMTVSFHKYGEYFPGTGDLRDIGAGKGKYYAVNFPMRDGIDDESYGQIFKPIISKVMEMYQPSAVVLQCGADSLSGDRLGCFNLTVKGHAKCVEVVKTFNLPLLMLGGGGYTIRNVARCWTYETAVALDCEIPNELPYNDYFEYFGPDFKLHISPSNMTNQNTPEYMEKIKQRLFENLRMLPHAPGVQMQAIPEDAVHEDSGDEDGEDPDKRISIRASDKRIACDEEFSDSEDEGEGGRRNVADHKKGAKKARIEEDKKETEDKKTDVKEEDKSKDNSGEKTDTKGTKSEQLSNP
endpoint: Kd (nM)

- O=C(c1cc(O)c(O)c(O)c1)c1ccc(O)c(O)c1O [Exifone, 2,3,3’,4,4’,5’-hexahydroxybenzophenone]: 143
